testedTarget: human JAK3 (Homo sapiens)
Construct: The kinase domain of human JAK3 was amplified from U937mRNA; His tag (pFastBac HTb vector; nickel chelate purification) (N); made in house; host or cells: baculovirus; Sf9 for virus, High Five insect cells for production
method: JAK kinase assay (ELISA or Alphascreen), Jak3
Type: biochemical
conditionDescription: standard conditions, read-out: Jak3 inhibition of enzyme activity
Answer each item with its documented inhibition at 20 µM.

Please supply the value of reported inhibition at 20 µM for the item CC(Nc1cncc(-n2cnc3ccc(C#N)cc32)n1)c1ccccn1 (stereo not drawn)
≥ 50%

Give the reported inhibition at 20 µM for this molecule. C[C@H](Nc1cncc(-n2cnc3ccc(CN(CCO)CCO)cc32)n1)c1ccc(F)cc1
< 50%

Supply measured inhibition at 20 µM of CC1CC(Nc2cncc(-n3cnc4cc(C#N)ccc43)n2)c2ccccc21 (stereo not drawn) in your reply.
≥ 50%

Supply reported inhibition at 20 µM belonging to this molecule: CC(Nc1cncc(-n2cnc3cc(C#N)ccc32)n1)c1ccccn1 (stereo not drawn)
< 50%

For the molecule COc1cccc2c1CCC2Nc1cncc(-n2cnc3cc(C#N)ccc32)n1 (stereo not drawn) , report inhibition at 20 µM.
< 50%

Quick one: give measured inhibition at 20 µM for CC(Nc1cncc(-n2cnc3cc(CO)ccc32)n1)c1ccc(F)cc1 (stereo not drawn)
< 50%

---

testedTarget: human JAK3 (Homo sapiens, UniProt P52333)
Construct: The kinase domain of human JAK3 was amplified from U937mRNA; His tag (pFastBac HTb vector; nickel chelate purification) (N); made in house; host or cells: baculovirus; Sf9 for virus, High Five insect cells for production
Sequence (P52333 822-1111 limits assumed): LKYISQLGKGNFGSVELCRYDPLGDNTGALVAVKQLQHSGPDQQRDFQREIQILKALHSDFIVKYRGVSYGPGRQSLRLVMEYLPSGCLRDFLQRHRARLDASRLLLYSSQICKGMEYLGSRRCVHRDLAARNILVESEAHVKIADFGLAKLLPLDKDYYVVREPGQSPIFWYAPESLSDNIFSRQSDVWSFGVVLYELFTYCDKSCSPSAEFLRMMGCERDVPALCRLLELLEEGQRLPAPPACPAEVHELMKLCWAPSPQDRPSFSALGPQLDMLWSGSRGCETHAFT
method: JAK kinase assay (ELISA or Alphascreen), Jak3
Format: biochemical
conditionDescription: standard conditions, read-out: Jak3 inhibition of enzyme activity
measurementKind: inhibition at 20 µM

Quote inhibition at 20 µM reported for C[C@H](Nc1cncc(-n2cnc3ncccc32)n1)c1ccccc1 please.
< 50%

Fill in reported inhibition at 20 µM for this entry: CC[C@H](Nc1cncc(-n2cnc3cc(C#N)ccc32)n1)c1ccccc1
≥ 50%

Please give the documented inhibition at 20 µM of N#Cc1ccc2c(c1)ncn2-c1cncc(N[C@H]2CCCc3ccccc32)n1
≥ 50%

// Input: CC(Nc1cncc(-n2cnc3cc(C#N)ccc32)n1)c1ccc(F)c(Cl)c1 (centres unmarked) . Output its inhibition at 20 µM only.
< 50%

Output measured inhibition at 20 µM for this item: CC(Nc1cncc(-n2cnc3cc(C#N)ccc32)n1)c1ccc(F)c(F)c1 (centres unmarked)
≥ 50%
